experiment: Metabolic stability in Sprague-Dawley rat plasma assessed as drug recovery at 0.8 ug/ml by RP-HPLC; assay type: ADME, cell-free; conditions: read-out: Stability
QUANTITY NAME: remaining at 0.8 ug/ml (%)
Kindly provide the numeric value in % only, without the unit symbol.

Q: Consider the compound shown here: `COc1cc(/C=C/C(=O)/C=C/c2ccc(O)c(OC)c2)ccc1O` What is its recorded remaining at 0.8 ug/ml?
Ans: 98.3

----------
tested on: Liver; assay: Drug level in liver of patient with cancer at 3.6 g/day by HPLC; assay type: ADME, tissue-based; settings: human, in vivo; read-out: Drug uptake
QUANTITY NAME: concentration (nM)
Kindly provide the numeric value in nM only, without the unit symbol.

Q: Consider the compound shown here: `COc1cc(/C=C/C(=O)CC(=O)/C=C/c2ccc(O)c(OC)c2)ccc1O` What is its recorded concentration?
Ans: 1300

Recorded values, source ChEMBL document CHEMBL1153929.
